- assay_system: kinase domain of BMX (Homo sapiens)
- Construct: The kinase domains of JAK3 and BMX at 2 μM
- Sequence (P51813 417-675 limits assumed): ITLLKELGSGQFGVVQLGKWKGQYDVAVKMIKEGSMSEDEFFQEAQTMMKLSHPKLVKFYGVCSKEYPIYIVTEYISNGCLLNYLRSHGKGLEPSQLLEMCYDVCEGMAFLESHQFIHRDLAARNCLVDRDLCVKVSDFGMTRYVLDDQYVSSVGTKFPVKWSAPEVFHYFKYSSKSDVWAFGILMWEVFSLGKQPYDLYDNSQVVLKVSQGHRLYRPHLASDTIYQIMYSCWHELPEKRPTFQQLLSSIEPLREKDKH
- test_method_notes: Mass spectrometric investigation of covalent binding to BMX (ESI-TOF)
- experimental_conditions: 1.5-fold molar excess of inhibitor, 4 °C, 30 min
Reported BMX covalent adduct fraction, 30 min values for the following molecules.
The answer is to be given in %; state only the numeric part.

C=CC(=O)Nc1cccc(-c2c[nH]c3ncc(NC(=O)CC4CCCC4)cc23)c1 [Compound 12g] : 100
C=CC(=O)Nc1cccc(-c2c[nH]c3ncc(C(=O)NC4CCCC4)cc23)c1 [Compound 11a] : 60
C=CC(=O)Nc1cccc(-c2c[nH]c3ncc(C(N)=O)cc23)c1 [Compound 10a] : 99
C=CC(=O)Nc1cccc(-c2c[nH]c3ncc(NC(=O)Cc4cccs4)cc23)c1 [Compound 12i] : 100
C=CC(=O)Nc1cccc(-c2c[nH]c3ncc(NC(=O)c4cccs4)cc23)c1 [Compound 12c] : 100

Turning now to a further molecule:
input: Identify BMX covalent adduct fraction, 30 min associated with the molecule `C=CC(=O)Nc1cccc(-c2c[nH]c3ncccc23)c1`
output: 100
